Cited source: ChEMBL document CHEMBL3600352

target: Histone deacetylase 1 (Homo sapiens, UniProt Q13547); test: Inhibition of recombinant His6-tagged GST-fused human HDAC1 expressed in baculovirus infected insect High5 cells using Ac-Lys-Tyr-Lys(epsilon-acetyl)-AMC as substrate after 24 hrs
Sequence (Q13547 whole entry, the tested form may be a part): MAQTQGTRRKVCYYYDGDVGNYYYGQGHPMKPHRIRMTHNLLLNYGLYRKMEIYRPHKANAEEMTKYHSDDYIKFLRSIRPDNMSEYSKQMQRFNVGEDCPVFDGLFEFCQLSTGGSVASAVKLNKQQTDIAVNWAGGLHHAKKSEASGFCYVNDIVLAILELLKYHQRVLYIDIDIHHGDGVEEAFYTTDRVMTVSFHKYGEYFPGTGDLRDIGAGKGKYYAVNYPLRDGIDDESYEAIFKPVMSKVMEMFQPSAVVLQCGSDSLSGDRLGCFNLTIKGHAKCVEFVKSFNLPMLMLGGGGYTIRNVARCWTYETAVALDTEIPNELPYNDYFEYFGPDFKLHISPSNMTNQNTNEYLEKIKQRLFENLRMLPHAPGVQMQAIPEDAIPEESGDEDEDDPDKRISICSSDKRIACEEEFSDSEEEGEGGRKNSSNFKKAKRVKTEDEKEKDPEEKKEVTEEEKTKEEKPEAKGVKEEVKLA
Quick list: log10 IC50 per entry.
METRIC NAME: log10 IC50 (log10 of the value in nM)

INSERT INTO assay_data (smiles_notation, tested_target, observed_measurement) VALUES
  ('CCCCn1ccc2ccc(NC(=O)CCCCCCC(=O)NO)cc2c1=O', 'Histone deacetylase 1 (Homo sapiens, UniProt Q13547)', 1.82),
  ('COCCCNc1nccc2ccc(NC(=O)CCCCCCC(=O)NO)cc12', 'Histone deacetylase 1 (Homo sapiens, UniProt Q13547)', 1.45),
  ('COc1ccc(Cn2ccc3ccc(NC(=O)CCCCCCC(=O)NO)cc3c2=O)c(OC)c1', 'Histone deacetylase 1 (Homo sapiens, UniProt Q13547)', 1.99),
  ('O=C(CCCCCCC(=O)Nc1ccc2ccnc(Nc3ccccc3F)c2c1)NO', 'Histone deacetylase 1 (Homo sapiens, UniProt Q13547)', 1.26),
  ('Cc1ccc(Nc2nccc3ccc(NC(=O)CCCCCCC(=O)NO)cc23)cc1', 'Histone deacetylase 1 (Homo sapiens, UniProt Q13547)', 0.62),
  ('Cc1ccc(Nc2nccc3ccc(NC(=O)CCCCCCC(=O)NO)cc23)c(F)c1', 'Histone deacetylase 1 (Homo sapiens, UniProt Q13547)', 1.55),
  ('Cc1ccc(Nc2nccc3ccc(NCc4ccc(C(=O)NO)cc4)cc23)cc1', 'Histone deacetylase 1 (Homo sapiens, UniProt Q13547)', 2.51),
  ('CC(C)N1CCN(c2nccc3ccc(NC(=O)CCCCCCC(=O)NO)cc23)CC1', 'Histone deacetylase 1 (Homo sapiens, UniProt Q13547)', 1.62),
  ('O=C(CCCCCCC(=O)Nc1ccc2ccnc(Nc3ccc(Br)cc3F)c2c1)NO', 'Histone deacetylase 1 (Homo sapiens, UniProt Q13547)', 1.19),
  ('O=C(CCCCCCC(=O)Nc1ccc2ccnc(Nc3cccc(Cl)c3F)c2c1)NO', 'Histone deacetylase 1 (Homo sapiens, UniProt Q13547)', 1.24),
  ('Cc1ccc(Nc2nccc3ccc(NCc4ccc(/C=C/C(=O)NO)cc4)cc23)cc1', 'Histone deacetylase 1 (Homo sapiens, UniProt Q13547)', 2.31);
